- assayed.system: T1, human Nectin-4 expressed on cells (human, UniProt Q96NY8 32-510)
- T1 construct: On SUM190, SUM185, MDA-MB-468 cells (endogenous) or transfected cells; 31-residue signal peptide left out; also called huN4; wild-type human Nectin-4
- T1 sequence: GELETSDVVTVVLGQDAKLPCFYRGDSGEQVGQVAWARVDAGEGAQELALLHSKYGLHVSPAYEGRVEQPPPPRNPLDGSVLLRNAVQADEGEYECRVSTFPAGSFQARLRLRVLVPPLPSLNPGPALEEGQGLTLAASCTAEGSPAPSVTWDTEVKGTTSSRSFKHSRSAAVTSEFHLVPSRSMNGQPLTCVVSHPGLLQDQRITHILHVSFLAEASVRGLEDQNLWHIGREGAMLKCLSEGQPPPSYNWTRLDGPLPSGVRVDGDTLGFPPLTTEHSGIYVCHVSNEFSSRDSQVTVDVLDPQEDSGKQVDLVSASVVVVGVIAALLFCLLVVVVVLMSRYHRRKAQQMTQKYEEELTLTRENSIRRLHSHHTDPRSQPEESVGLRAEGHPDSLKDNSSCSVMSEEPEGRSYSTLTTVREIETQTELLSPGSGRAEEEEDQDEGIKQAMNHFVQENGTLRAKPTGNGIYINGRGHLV
- protocol.description: flow cytometry on SUM190 cells, MedFI at saturation
- Experimental: The humanized antibodies in Table 3 of Example 3 and in Table 6 of Example 5 were cloned, produced and purified, then tested for binding to Nectin-4 expressing cells by flow cytometry. Binding of humanized variants in human IgG1 format was determined on the SUM190 cell line expressing high levels of Nectin-4.

{"binder": "H3L3 (antibody, human IgG1, V domains shown, human IgG1 isotype) VH: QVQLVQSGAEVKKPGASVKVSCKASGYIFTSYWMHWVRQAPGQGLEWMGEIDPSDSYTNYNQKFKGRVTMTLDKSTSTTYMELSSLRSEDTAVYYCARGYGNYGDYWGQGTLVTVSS VL: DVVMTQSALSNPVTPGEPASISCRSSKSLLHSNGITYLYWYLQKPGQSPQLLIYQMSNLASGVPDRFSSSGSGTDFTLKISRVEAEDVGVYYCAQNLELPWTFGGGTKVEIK", "Max MedFi (MedFI)": 23800}
{"binder": "H7L2 (antibody, human IgG1, V domains shown, human IgG1 isotype) VH: QVQLVQSGAEVKKPGASVKVSCKASGYIFTSYWMHWVKQRPGQGLEWIGEIDPSDSYTNYNQKFKGRVTLTLDKSTSTTYMELSSLRSEDTAVYYCARGYGNYGDYWGQGTLVTVSS VL: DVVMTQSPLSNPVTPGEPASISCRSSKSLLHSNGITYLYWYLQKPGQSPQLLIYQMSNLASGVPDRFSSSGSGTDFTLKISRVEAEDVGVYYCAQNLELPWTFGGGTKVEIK", "Max MedFi (MedFI)": 23400}
{"binder": "H4L3 (antibody, human IgG1, V domains shown, human IgG1 isotype) VH: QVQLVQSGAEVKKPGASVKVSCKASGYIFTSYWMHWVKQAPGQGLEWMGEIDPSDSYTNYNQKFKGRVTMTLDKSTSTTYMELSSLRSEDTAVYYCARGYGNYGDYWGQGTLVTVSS VL: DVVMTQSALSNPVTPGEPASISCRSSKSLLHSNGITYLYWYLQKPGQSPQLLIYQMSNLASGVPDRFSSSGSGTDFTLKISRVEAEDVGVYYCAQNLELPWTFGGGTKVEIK", "Max MedFi (MedFI)": 24800}
